target: HLA-A*02:01 (Homo sapiens, UniProt P04439, D140Y/D185E/D98H/E176V/E277Q/G131W/G231S/I119V/I121R/I166T/I218V/L300P/L318F/N151K/N90K/P208A/P217A/Q86G/Q94H/R138H/R169H/T345S); assay: MHC binding assay: UV-ligand exchange with ELISA detection of β2m of stabilized MHC complexes; conditions: binding to HLA-A*02:01
Endpoint: Peptide exchange (MHC class I binding score, peptide exchange yield)

Reference set (8 entries):
Substance | Observed Measurement
74 (FLDSLSPSV; listed as Homo sapiens) [compound 74] | +++ (≥50 = +++)
58 (VLLNINGIDL; listed as Homo sapiens) [compound 58] | ++++ (≥75% = ++++)
63 (LLMSTENEL; listed as Homo sapiens) [compound 63] | +++ (≥50 = +++)
6 (SIMDYVVFV; listed as Homo sapiens) [compound 6] | ++++ (≥75% = ++++)
115 (ALLPSDCLQEA; listed as Homo sapiens) [compound 115] | +++ (≥50 = +++)
110 (GLTETGLYRI; listed as Homo sapiens) [compound 110] | +++ (≥50 = +++)
5 (SLQSLIISV; listed as Homo sapiens) [compound 5] | ++++ (≥75% = ++++)
70 (TLLWKLVEV; listed as Homo sapiens) [compound 70] | ++ (≥20% = ++)

Exercise: Reported Peptide exchange (MHC class I binding score, peptide exchange yield) for 31 (RLLQDPVGV; listed as Homo sapiens) [compound 31] : what is it?
Solution: ++++ (≥75% = ++++)

Exercise: Quick one: 123 (KLDKNPNQV; listed as Homo sapiens) [compound 123]
Solution: +++ (≥50 = +++)

Exercise: Please answer likewise for 40 (GLLEVQVEV; listed as Homo sapiens) [compound 40]
Solution: +++ (≥50 = +++)

Exercise: Queued: 72 (KAIGSLKEV; listed as Homo sapiens) [compound 72]
Solution: +++ (≥50 = +++)

Exercise: Ok, now 11 (KLFAIPILL; listed as Homo sapiens) [compound 11]
Solution: +++ (≥50 = +++)

Exercise: Now try 46 (ALWVAVPKA; listed as Homo sapiens) [compound 46] .
Solution: +++ (≥50 = +++)
